Ref: PubChem BioAssay (Tox21)

test-details: qHTS assay to identify small molecule agonists of the estrogen receptor alpha (ER-alpha) signaling pathway in the presence of an antagonist - cell viability counter screen (AID 1259386);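 further: cells exposed to compounds for 22 h at 37 °C before the viability read; nearly all actives have a fitted effect of over 30% in size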
condition-label: VM7Luc4E2 viability, CellTiter-Fluor fluorescence, 22 h; series mostly up to 92.4 µM
Records with an inconclusive call do not appear. Active and inactive are the calls of the source. The call rests on the fitted dose curve; in most records, active means well fitted cell-killing curve with a large enough effect in the repeat runs; inconclusive means weak or mixed curves, or effect the other way; inactive means no such curve, though single readings can be large or run the other way.
Classes used: 1 (yes) for active, 0 (no) for inactive

> print(dat)
                                    molecule    group
 1  Cc1cc(F)ccc1-c1cc(N2CC[C@@H](O)[C@H]2CO)ncc1N(C)C(=O)C(C)(C)c1cc(C(F)(F)F)cc(C(F)(F)F)c1   0 (no)
 2        Cc1ccc(N=Nc2c(O)ccc3ccccc23)c(C)c1  1 (yes)
 3                CCC(=O)OC/C=C(\C)CCC=C(C)C   0 (no)
 4  CCc1cccc(C)c1N(C(=O)CS(=O)(=O)O)C(C)COC (configuration not stated)   0 (no)
 5  N#Cc1ccc(C/C(=N/NC(=O)Nc2ccc(OC(F)(F)F)cc2)c2cccc(C(F)(F)F)c2)cc1   0 (no)
 6  CN1CCN(c2ccccc2/C=C2\SCCN(c3ccc(Cl)c(Cl)c3)C2=O)CC1  1 (yes)
 7  O=C(N[C@H](CO)[C@H](O)c1ccc([N+](=O)[O-])cc1)C(Cl)Cl   0 (no)
 8              C/C=C/C(=O)C1=C(C)C=CCC1(C)C   0 (no)
 9               CSc1nnc(C(C)(C)C)c(=O)[nH]1   0 (no)
10              c1ccc(-c2ccccc2-c2ccccc2)cc1   0 (no)
11                        C/C=C/C(=O)OCC(C)C   0 (no)
12                               N#CCCOCCC#N   0 (no)
